Every entry's value here was drawn from patent US20250215029A1.

Assay System: Recombinant STAT3 protein (STAT3 (G127-I722)) (Homo sapiens)
Construct: Recombinant STAT3 protein (STAT3 (G127-I722))
Sequence (P40763 127-722): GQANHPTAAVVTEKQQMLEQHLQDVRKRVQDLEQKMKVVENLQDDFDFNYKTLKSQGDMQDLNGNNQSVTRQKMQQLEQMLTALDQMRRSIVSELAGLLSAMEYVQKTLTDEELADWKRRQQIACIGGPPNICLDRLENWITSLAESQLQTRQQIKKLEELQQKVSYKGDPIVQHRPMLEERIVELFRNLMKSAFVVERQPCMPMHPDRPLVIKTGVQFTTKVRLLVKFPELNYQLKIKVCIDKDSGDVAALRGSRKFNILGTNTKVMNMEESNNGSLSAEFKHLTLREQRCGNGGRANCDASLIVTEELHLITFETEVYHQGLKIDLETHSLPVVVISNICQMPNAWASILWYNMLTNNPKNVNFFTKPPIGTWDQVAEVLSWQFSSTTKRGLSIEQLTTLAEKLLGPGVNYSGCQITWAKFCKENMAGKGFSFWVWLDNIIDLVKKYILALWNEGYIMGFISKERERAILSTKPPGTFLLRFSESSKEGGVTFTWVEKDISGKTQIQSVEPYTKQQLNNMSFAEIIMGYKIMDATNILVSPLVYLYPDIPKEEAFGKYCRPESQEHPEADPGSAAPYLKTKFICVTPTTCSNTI
Protocol Summary: STAT3 Fluorescence Polarization (FP) Assay
Type: binding
Run Parameters: STAT3 (G127-I722) 25 nM, probe 5-FAM-GpYLPQTV-NH2 2 nM, 45-minute incubation; read-out: STAT3 (FP assay IC50 class)
Listing of entries alongside the reported IC50.
Recorded Metric: IC50

1) CS(=O)(=O)NC1CN(C(=O)[C@@H]2CC[C@@H]3CCCC[C@H](NC(=O)c4cc5cc(C(F)(F)P(=O)(O)O)ccc5s4)C(=O)N32)C1 [Compound 787] | < 100 nM
2) CC[C@H]1CC[C@H](NC(=O)c2cc3cc(C(F)P(=O)(O)O)ccc3s2)C(=O)N2[C@H](CC[C@H]2C(=O)N2C[C@@H](C#N)[C@H](c3ccccc3)C2)C1 (single isomer, unassigned) [Compound 237] | 1000 to 10000 nM
3) O=C(N[C@H]1CCC[C@H]2CC[C@@H](C(=O)N3CC(c4cnccc4F)C3)N2C1=O)c1cc2cc([C@@H](F)P(=O)(O)O)ccc2s1 (single isomer, unassigned) [Compound 599] | < 100 nM
4) O=C(N[C@H]1CCC[C@H]2CC[C@@H](C(=O)NCc3ccc4[nH]cnc4c3)N2C1=O)c1cc2cc(C(F)(F)P(=O)(O)O)ccc2s1 [Compound 1115] | < 100 nM
5) Cn1ccc(C2(O)CCN(C(=O)[C@@H]3CC[C@@H]4CCCC[C@H](NC(=O)c5cc6cc(C(F)P(=O)(O)O)ccc6s5)C(=O)N43)C2)cc1=O (some centres unmarked) [Compound 914] | 100 to 1000 nM
6) O=C(N[C@H]1CCCC[C@H]2CC[C@@H](C(=O)N3CC(NCC(F)F)(c4ccccn4)C3)N2C1=O)c1cc2cc(C(F)P(=O)(O)O)ccc2s1 (some centres unmarked) [Compound 761] | < 100 nM
7) O=C(N[C@H]1CCC[C@H]2CC[C@@H](C(=O)N3CC(c4nccc(O)n4)C3)N2C1=O)c1cc2cc(C(F)(F)P(=O)(O)O)ccc2s1 [Compound 809] | < 100 nM
8) COc1ccncc1[C@H]1CCN(C(=O)[C@@H]2CC[C@@H]3CCC[C@H](NC(=O)c4cc5cc(C(F)P(=O)(O)O)ccc5s4)C(=O)N32)C1 (some centres unmarked) [Compound 707] | < 100 nM
9) O=C(N[C@H]1CCC[C@H]2CC[C@@H](C(=O)N3CC(c4cnccc4C4OCCO4)C3)N2C1=O)c1cc2cc(CP(=O)(O)O)ccc2s1 [Compound 546] | 1000 to 10000 nM
10) Cc1cc(C#N)ccc1C1CN(C(=O)[C@@H]2CC[C@@H]3CCCC[C@H](NC(=O)c4cc5cc(C(F)(F)P(=O)(O)O)ccc5s4)C(=O)N32)C1 [Compound 1110] | < 100 nM
11) O=C(N[C@H]1CCC[C@H]2CC[C@@H](C(=O)N3CC(c4cnccc4Oc4ccccc4)C3)N2C1=O)c1cc2cc(C(F)P(=O)(O)O)ccc2s1 (some centres unmarked) [Compound 699] | < 100 nM
